All figures here come from patent US20160130278A1.

Measured IC50 by item
- target-under-test: human type 1 glycine transporter (GlyT1) (Homo sapiens)
- Construct: T98G cells (glioma cells) expressing human type 1 glycine transporter (GlyT1) were used
- experiment-summary: Glycine uptake inhibition experiment ([3H]glycine uptake)
- Assay type: cell-based
- applied-conditions: GlyT1

[
  {
    "compound": "O=C(NC(c1cccc(F)c1Cl)[C@]1(O)CC[C@@H](F)CC1)c1c(Cl)cccc1C(F)(F)F (single isomer, unassigned)",
    "target-under-test": "human type 1 glycine transporter (GlyT1) (Homo sapiens)",
    "output-unit": "nM",
    "IC50": 670
  },
  {
    "compound": "O=C(NC(c1cccc(F)c1Cl)C1(O)CCC(F)(F)CC1)c1nccc(C(F)(F)F)c1Cl (single isomer, unassigned)",
    "target-under-test": "human type 1 glycine transporter (GlyT1) (Homo sapiens)",
    "output-unit": "nM",
    "IC50": 100
  },
  {
    "compound": "O=C(NC(c1cccc(Cl)c1Cl)C1(O)CCCC1)c1nccc(C(F)(F)F)c1Cl (single isomer, unassigned) [Compound 117]",
    "target-under-test": "human type 1 glycine transporter (GlyT1) (Homo sapiens)",
    "output-unit": "nM",
    "IC50": 29
  }
]
